organism: Rattus norvegicus; assay: Open TG-GATES - Regimen: Daily Repeat; assay type: toxicity, organism-based, Sprague-Dawley; parameters: regimen Daily Repeat, gender Male, age 6 weeks; settings: in vivo, po, 0 mg/kg, […], tissue Blood, route gavage, dose level Control, time 14 day
experimentalEndpoint: WBC (x10_2/uL)

CCCNC(=O)NS(=O)(=O)c1ccc(Cl)cc1 [CHLORPROPAMIDE]
115.5
COC1=CC(=O)C[C@@H](C)[C@]12Oc1c(Cl)c(OC)cc(OC)c1C2=O
116.8
CC(C)OC(=O)C(C)(C)Oc1ccc(C(=O)c2ccc(Cl)cc2)cc1 [FENOFIBRATE]
81.5
NNC(=O)c1ccncc1
109.8
NC(N)=Nc1nc(CSCCC(N)=NS(N)(=O)=O)cs1
112.3
CCOc1ccc(NC(=O)CC(C)O)cc1 (stereo not drawn)
121.6
COc1ccc2[nH]c([S+]([O-])Cc3ncc(C)c(OC)c3C)nc2c1 (stereo not drawn)
94.4
CN1C(=O)CN=C(c2ccccc2)c2cc(Cl)ccc21
149.8
